Target: Bcl-2-like protein 10 (Homo sapiens, UniProt Q9HD36)
Sequence (Q9HD36 whole entry): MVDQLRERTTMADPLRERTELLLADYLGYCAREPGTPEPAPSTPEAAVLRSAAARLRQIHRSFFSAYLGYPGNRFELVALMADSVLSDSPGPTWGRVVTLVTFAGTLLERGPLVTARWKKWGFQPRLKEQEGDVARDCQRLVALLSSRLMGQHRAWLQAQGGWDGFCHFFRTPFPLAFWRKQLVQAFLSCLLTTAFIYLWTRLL
Experiment: Bcl-B/TR3 peptide binding disruption – biochemical, fluorescence polarization, FITC-TR3 peptide, selectivity assay for Bfl-1 inhibitor project, primary screen (AID 748);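 further: fluorescence polarization from a fluorescein-labelled TR3 peptide binding purified Bcl-B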
Active and inactive are the calls of the source. No stated cut-off is given here; in the data, active = IC50 of 50 µM or less and inactive = more.
Hi there, use one of these labels in your reply, thanks! active, inactive

COc1ccccc1N1CCN(C(=O)c2cc3c(s2)CCC3)CC1    active
COC(=O)CNc1c(-c2ccccn2)nc2ccc(Br)cn12    inactive
O=C(N/N=C/c1ccc(F)cc1)c1cc(-c2ccco2)nc2ccccc12    active

Moving on to another compound below.
Exercise: Hi team, can someone confirm the assay call for CCc1ccccc1NC(=O)c1cc2ncc(Br)cn2n1 ?
Solution: inactive
